- System tested: T1, human TMEM106B (human, UniProt Q9NUM4 2-274)
- T1 construct: full-length, transiently expressed on HEK293 cells, or natively expressed on HeLa, U251 and A549 cells (the cell is named under assay); also the source of the Pepscan peptides; also called huTMEM106B; huTMEM
- Assay protocol: FACS HEK+huTMEM 10 ug/ml;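 further: flow cytometric binding of purified mouse IgG antibodies to HEK293 cells transiently expressing human TMEM106B, read as median fluorescence intensity on live cells with propidium iodide-positive cells excluded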
Under this convention, True denotes MFI strictly below 10000 MFI and False denotes MFI at or above 10000 MFI.

Record excerpt, results attached:
>>> classification("TM-33 (antibody, V domains shown, mouse IgG (hybridoma)) VH: EFQLQQSGPELVKPGASVKISCKASGYSFTDYNMNWVKQSNGKSLEWIGVINPNYGTTSYNQKFKGKATLTVDQSSSTAYMQLNSLTSEDSAVYYCASSYWGQGTLVTVSA VL: DIVMTQSQKFMSTTVGDRVSITCKASQNVGTAVAWYQQKPGQSPKLLIYSASNRYTGVPDRFTGSGSGTDFTLTISNMQSEDLADYFCQQYSSYPYTFGGGTKLEIK")
"False"
>>> classification("TM-14 (antibody, V domains shown, mouse IgG (hybridoma)) VH: QVQLQQSGPELVRPGTSVKVSCKASGYAFTNYLIEWVKQRPGQGLEWIGVINPGGGNTDYSEKFKDKATLTADKSSNTAYIQLSSLTSEDSAVYFCARSPYSSYVGYAVDYWGQGTSVTVSS VL: DIQMTQSPSSLSASLGERVSLTCRASQDIGSNLNWLQQEPDGTIKRLIYATSSLDSGVPKRFSGSRSGSDYSLTISSLESEDFVVYYCLQYASSPRTFGGGTRLEIK")
"True"
>>> classification("TM-27 (antibody, V domains shown) VH: QVQLQQSGAELVRPGTSVKVSCKASGYALTNYLIEWVKQRPGQGLEWIGVINPGSGSTKYNEKFKGKATLTADKSSSTAYMQLSSLTSEDSAVYFCARIIYDHDWYFDVWGTGTTVTVSS VL: QIVLTQSPAIMSASPGEKVTISCSASSSISYMYWYQQKPGSSPKPWIYRTSTLASGVPARFSGSGSGTSYSLTISSMEAEDAATYYCQQYHSYPRTFGGGTKLEIK")
"True"

Is the reported MFI for TM-28 (antibody, V domains shown) VH: EVQLQQSGPVLVKPGPSVKISCMASVFTFNDYYIHWVKQSHGKSLEWIGLVYPYNGGTNYNQNFKGKATLTVDTSSRTAYMELNSLTSEDSAVYYCARSYFSNPIGYWGQGTLVTVSE VL: DIVMTQSPSSLSVSVGEKVTVSCKSSQSLLNSGNQKNYLAWYQQKPGQPPKLLIYGASTRESGVPDRFTGSGSGTDFTLTISSVQAEDLAVYYCQNDHSYPLTFGAGTKLELK strictly below 10000 MFI?
False

Proceed to TM-2 (antibody, V domains shown) VH: HIQLVQSGPELKKPGETVKISCKASGYTFTEYPMHWVKQAPGKGFRWMGMIYTNTGEPTYAAEFKGRFAFSLETSASTGYLQINNLKNEDSATYFCVTAGYWGQGTLVTVSA VL: QIVLTQSPAILSASPGEKVTMTCRASSSVSYIHWFLQKPGSSPKPWIYATSNLASGVPFRFIGSGSGTSYSLTISGVEAEDSATYYCQQWSSNPSTFGAGTKLELK
False

Proceed to TM-18 (antibody, V domains shown) VH: EVRLQQSGPELVKPGASVKISCKTSGYTFTDYYMNWVKQSHGKSLEWIVNINPNNGDAFYNQKFKGKATLTVDKSSNTAYLDLRSLTSEDSAVYYCAREGQLRLRRVYAMDYWGQGTSVTVSS VL: DIVLAQSPASLAVSLGQRATISCRASKSVSISVYTYVHWYQQKPGQPPKLLIYLASNLESGVPARFSGSGSGTDFTLNIHPVEEEDAATYYCQHSRELPYTFGGGTKLEIK
False

Proceed to TM-24 (antibody, V domains shown, mouse IgG (hybridoma)) VH: QVQLKQSGPGQVQPSQSLSITCTVSGFSLSDYGVHWVRQSPGKGLEWLGVIWNNGNTDYNAAFISRLSINKDNSKSQVFFKMTSLQADDTAIYYCVRSLRPLHFDYWGQGTTVTVSS VL: DIVMTQSPSSLTMSVGQKVTMNCKSSQSLLNSNNQQNYLAWYQQKPGQSPKLLVYFASIRESGVPDRFIGSGSGTDFTLTINSVQAEDLADYFCQQHYSTPFTFGSGTKLEIR
False

Proceed to TM-15 (antibody, V domains shown, mouse IgG (hybridoma)) VH: QVQLQQPGAEFVRPGASVKLSCKASGYTFTNYWITWVKQRPGHGLEWIGDIYPGSGNSNYNESFKRKATLTVDTSSSTAYMHLSSQTSEDSAVYFCARKAYGGFPYWGQGTLVTVSA VL: DIQMTQSPASLSVSVGETVTITCRVSENIYNNLAWYQQKQEKSPQLLVFAATNLADGVPSRFSGSGSGTQFSLKINSLQSEDFGTYYCQHFWDTPFTFGSGTKLEIK
False

Proceed to TM-1 (antibody, V domains shown) VH: QVQLQQSGAELVRPGTSVKVSCKASGYAFTNYLIEWVKQRPGQGLEWIGVINPGSGGTKYNEKLKGKATLTADKSSSTAYMQLSSLTSVDSAVYFCARRGYTIYDFYAMDYWGQGTSVTVSS VL: DVLMTQTPLSLPVSLGDHASISCRSSQSIVYNNGNTYLEWYLQKPGQSPKLLIYKVSNRFSGVPDRFSGSGSGTDFTLKISRVEAEDLGVYYCFQVSHVPFTFGSGTKLEIK
True

Proceed to TM-13 (antibody, V domains shown) VH: QVQLQQSGAELVKPGASVKMSCKASGYTFTTFPIEWMKQSHGKGLEWIGNFHPYNDDTKYNEKFKGKATLTVDKSSSTVYLDLSRLTSDDSAVYYCARYFYGGMDYWGQGTSVTVSS VL: DIQMTQSPASLSVSVGETVTITCRASENIYSSLGWYQQKQGESPQLLVFAATNLADGVPSRFSGSGSGTQYSLKINSLQSEDFGTYYCQHLWSIPWTFGGGTRLEIK
False
